Provenance of the data: PubChem BioAssay (NCI)

- Test system: PC-3 prostate
- Protocol: NCI tumour cell line growth inhibition, 48 h
Please provide measured TGI for the entries that follow.

Below are worked cases with known answers.
Compound	TGI
COc1ccc2c(c1)C(=O)C1CCC(=O)N1C2c1ccc2c(c1)OCO2 (stereo not drawn)	29.5 µM
COC(=O)[C@@H]1C=C[C@H](NC(C)=O)C1	> 100 µM

For every record below, what is its TGI?
1. COC(=O)/C=C1\C(=O)C=C2[C@@H]3C[C@H]4C[C@H](CC[C@@]4(C)N21)C3(C)NC(C)=O (stereo partly drawn)
2. CC(=O)NC(=O)NC1=NCCC(=O)N1CCc1c[nH]c2ccccc12

Out:
1. 31.4 µM
2. > 100 µM

For every record below, what is its TGI?
1. C[C@]12CC[C@H]3[C@@H](CCC4=C(Br)C(=O)C=C[C@@]43O)[C@@H]1CCC2=O
2. Cc1nc(Nc2nc3ccccc3[nH]2)nc(Cl)c1CCCl
3. Cc1nc2cccc(F)c2c(=O)n1-c1nnc(C(F)(F)F)s1
4. N#C/C(=C1/c2cc([N+](=O)[O-])ccc2-c2c1cc([N+](=O)[O-])cc2[N+](=O)[O-])N1CCCCC1
5. Clc1ccc2ns[s+]c2c1
6. CCCCCCNC(=O)Oc1ccc(/C(=C(/C)Cc2ccc(OC)cc2)c2ccc(OCCN(C)C)cc2)cc1
7. Cc1ccc(NC2=N/C(=C/c3ccco3)C(Cl)=N2)cc1

Out:
> 100 µM
> 100 µM
> 10 µM
> 100 µM
> 100 µM
5.96 µM
> 100 µM

For every record below, what is its TGI?
1. COC(=O)[C@@]1(C)CCC[C@]2(C(=O)O)C3Cc4occc4[C@H](C)[C@@H]3CCC21 (stereo partly drawn)
2. CC[C@H](Nc1nc(N)nc(C2CC2)c1C#N)c1nc2cccc(NCc3ccc(C(=O)NO)cc3)c2c(=O)n1-c1ccccc1

Out:
["96.9 µM", "14.6 µM"]

----------
Please provide measured TGI for the entries that follow.
- Test system: OVCAR-3 ovarian
- Protocol: NCI tumour cell line growth inhibition, 48 h

Compound	Tested on	Measured
COc1ccc([C@@H](O)c2cc(-c3ncnc4cc(N5CCOCC5)ccc34)c(F)cc2Cl)nn1	OVCAR-3 ovarian	20.3 µM
C[C@]12CC[C@@H](OC(=O)N(CCCl)N=O)C[C@@H]1CC[C@@H]1[C@@H]2CC[C@]2(C)C(=O)CC[C@@H]12	OVCAR-3 ovarian	19.9 µM
COC(=O)[C@@]1(C)CCC[C@]2(C(=O)O)C3Cc4occc4[C@H](C)[C@@H]3CCC21 (stereo partly drawn)	OVCAR-3 ovarian	> 100 µM
C[C@]12CC[C@H]3[C@@H](CCC4=C(Br)C(=O)C=C[C@@]43O)[C@@H]1CCC2=O	OVCAR-3 ovarian	> 100 µM
O=C(Nc1ccc(Br)cc1)Nc1nn(C(=O)Nc2ccc(Br)cc2)c2ccccc12	OVCAR-3 ovarian	> 77.6 µM

For every record below, what is its TGI?
1. Cc1ccc2sc3ccc(N)cc3c(=O)c2c1
2. Cc1cc(=O)oc2cc(OC(=O)N(CCCl)CCCl)ccc12
3. COC(=O)[C@@H]1C=C[C@H](NC(C)=O)C1

Out:
1: > 100 µM; 2: > 100 µM; 3: > 100 µM
